Read-out: Collagen I, COL1A1 (gene 1277)
Assay: BSK_hDFCGF_CollagenI: BioMAP Diversity Plus: hDFCGF Assay for Collagen I Biomarker Activity (AID 2284250)
Settings: primary human foreskin fibroblasts
Activity calls are given as the source filed them. Rule for the calls: active = hit-call score of the fitted dose curve at least 0.9, where 1 is the maximum; inactive = score below 0.9.
Endpoint: outcome

Check out these entries, answers already filled in.
C=CCOC(=O)CCC1CCCCC1
inactive
OC[C@H]1O[C@H](O[C@]2(CCl)O[C@H](CCl)[C@@H](O)[C@@H]2O)[C@H](O)[C@@H](O)[C@H]1Cl
inactive
CC(=O)OCCC(C)CC(C)(C)C (stereo not drawn)
inactive
Nc1cc([N+](=O)[O-])ccc1O
inactive
COc1cc(C=O)ccc1OC(=O)C(C)C
inactive
NCCNCCN
inactive
C[C@H]1C[C@@H]2[C@H]([C@@H](O)C[C@@]3(C)[C@H]2CC[C@]3(O)C(=O)CO)[C@@]2(C)C=CC(=O)C=C12
inactive

Please examine the following record next.
Form field: reported outcome of Cc1cc(C2(c3cc(C)c(O)cc3C)OS(=O)(=O)c3ccccc32)c(C)cc1O inactive
